Reference source for all entries: patent US20230312564A1

ASSAY PROTOCOL: In-vivo pharmacokinetic parameters in mice
Parameters: species or system Balb-c mice
CONDITION SUMMARY: male, Balb-c, mouse, plasma, IV, 1 mg/kg, read-out: Vss
Kindly return 1 (yes) if reported Vd is no lower than 2 L/kg; return 0 (no) if it is lower.

stdin: hey, is Vd for this one >= 2 L/kg? "COc1cc(F)cc([C@@H](CO)NC(=O)[C@@H](C)N2Cc3ccc(-c4nc(NC5CCOCC5)ncc4Cl)nc3C2=O)c1"
stdout: 1 (yes)

stdin: hey, is Vd for this one >= 2 L/kg? "C[C@H](C(=O)N[C@H](CO)c1cccc(Cl)c1)N1Cc2ccc(-c3nc(NC4CCOCC4)ncc3Cl)c(F)c2C1=O"
stdout: 0 (no)

stdin: hey, is Vd for this one >= 2 L/kg? "COc1cc(F)cc([C@@H](CO)NC(=O)[C@@H](C)N2Cc3ccc(-c4nc(NC5CCOCC5)ncc4F)c(F)c3C2=O)c1"
stdout: 0 (no)

stdin: hey, is Vd for this one >= 2 L/kg? "Cc1cccc([C@@H](CO)NC(=O)[C@@H](C)N2Cc3ccc(-c4nc(Nc5ccnn5C)ncc4Cl)c(F)c3C2=O)c1"
stdout: 1 (yes)

stdin: hey, is Vd for this one >= 2 L/kg? "COc1cc(F)cc([C@@H](CO)NC(=O)[C@@H](C)N2Cc3ccc(-c4nc(NC5CCOCC5)ncc4Cl)c(F)c3C2=O)c1"
stdout: 0 (no)

stdin: hey, is Vd for this one >= 2 L/kg? "Cc1cccc([C@@H](CO)NC(=O)[C@@H](C)N2Cc3ccc(-c4nc(NC5CCOCC5)ncc4Cl)c(F)c3C2=O)c1"
stdout: 0 (no)
